- experimentDescription: chemical genetic growth profiling, strain panel (AID 1159580);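 further: tested at 20 µM; growth read once vehicle control cultures reached saturation at 30 °C; 1 = growth at the plate median or of vehicle wells; lower values mean less growth of the strain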
- recordedConditions: S. cerevisiae deletion strains, growth OD, locus YDR101C, strain arx1, stronger effect = lower value
Hit rate of the full screen: of about 5,500 compounds, about 2,000 (36%) were called active. Not shown: some 18% with an inconclusive outcome. The list shows a part of the results.
Entries annotated with measured normalized growth
Answer with a number only.

{"compound": "COC(=O)c1c(OC)cc2c(c1C)Oc1c(Cl)c(OC(C)=O)c(Cl)c(C)c1C(=O)O2", "reading": 1.01}
{"compound": "O=C(OCc1ccccc1)c1ccccc1", "reading": 0.96}
{"compound": "NC(=O)NC(=O)Cc1ccccc1", "reading": 0.994}
{"compound": "CCCN(CCC)S(=O)(=O)c1ccc(C(=O)O)cc1", "reading": 1}
{"compound": "COc1c(C)c2c(c(C)c1Cl)Oc1c(Cl)c(OC)c(Cl)c(C)c1C(=O)O2", "reading": 1.01}

-- ask Which normalized growth is listed for COC(=O)c1c(C)c2c(c(C)c1OC)OC(=O)c1c(C)c(Cl)c(OC)c(Cl)c1O2 ?
-- reply 1

-- ask If you can, please state the reported normalized growth value of Nc1ccc(S(=O)(=O)NC(=O)c2ccccc2)cc1 .
-- reply 1.02

-- ask Returns the measured normalized growth for the input compound. Input: CC(=O)N[C@@H](Cc1c[nH]c2ccccc12)C(N)=O
-- reply 0.997

-- ask normalized growth for NCC(=O)c1ccccc1 ?
-- reply 0.983

-- ask Endpoint output: normalized growth of NCC(N)C(=O)c1ccccc1 (stereo unspecified) . Value?
-- reply 0.997

-- ask I have this compound here, C=C1C[C@]23C[C@@]1(O)CC[C@H]2[C@@]12C=C[C@H](O)[C@@](C)(C(=O)O1)[C@H]2[C@@H]3C(=O)O , and I need its recorded normalized growth.
-- reply 0.967

---

Quick list: normalized growth per entry.
- experimentDescription: chemical genetic growth profiling, strain panel (AID 1159580);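 further: tested at 20 µM; growth read once vehicle control cultures reached saturation at 30 °C; 1 = growth at the plate median or of vehicle wells; lower values mean less growth of the strain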
- recordedConditions: S. cerevisiae deletion strains, growth OD, locus YOR061W, strain CKA2, stronger effect = lower value
The campaign covered roughly 5,500 compounds. About 2,000 (36%) were called active. Another 18% or so got no clear call; they are omitted. This is one part of the list.
Give only the figure.

{"molecule": "CC(C)CC(NC(=O)OCC1c2ccccc2-c2ccccc21)C(=O)O (stereo not drawn)", "normalized growth": 0.991}
{"molecule": "C=C1c2c(Cl)ccc(O)c2C(O)=C2C(=O)[C@]3(O)C(O)=C(C(N)=O)C(=O)[C@@H](N(C)C)[C@@H]3[C@@H](O)[C@H]12", "normalized growth": 0.973}
{"molecule": "Cc1onc(-c2c(Cl)cccc2Cl)c1C(=O)O/N=C(/N)Cc1ccc(C(C)(C)C)cc1", "normalized growth": 1.01}
{"molecule": "CC(=O)Oc1cccc(O)c1", "normalized growth": 1.01}
{"molecule": "CC[N+](C)(C)c1cccc(O)c1", "normalized growth": 0.989}
{"molecule": "CC(=O)Oc1ccc(/C=C/c2cc(OC(C)=O)cc(OC(C)=O)c2)cc1", "normalized growth": 1.01}
{"molecule": "COc1ccc([C@@H]2CC(=O)c3c(O)cc(O[C@@H]4O[C@H](CO[C@H]5O[C@@H](C)[C@H](O)[C@@H](O)[C@H]5O)[C@@H](O)[C@H](O)[C@H]4O)cc3O2)cc1O", "normalized growth": 0.977}
{"molecule": "CC(C)CCCC(C)C1CCC2C3CC[C@H]4C[C@@H](O)CC[C@]4(C)C3CC[C@]12C (stereo partly drawn)", "normalized growth": 0.997}

-- ask What value of normalized growth has been reported for the following molecule? COC(=O)c1sccc1NS(=O)(=O)c1cc(Cl)cc(Cl)c1
-- reply 0.979

-- ask Tell me the measured normalized growth of CC(N=C(NC#N)Nc1ccncc1)C(C)(C)C (stereo not drawn) , please.
-- reply 0.999

-- ask Query (molecule): CC(=O)Oc1ccc(O)cc1 ; field requested: normalized growth
-- reply 1.01
